Catalogue of Uterine Weight % Inc values
- Test system: ovariectomized rats
- METHOD: ovariectomized rat model of postmenopausal hyperlipidemia (uterine weight, uterine eosinophil peroxidase, serum cholesterol)
- Type: in vivo
- EXPERIMENTAL PARAMETERS: rat, in vivo, 1 mg/kg
Marks after values point to notes of the source that are not given here.
ENDPOINT NAME: Uterine Weight % Inc

1) O=C(c1ccc(OCCCCCN2CCCC2)cc1)c1c(-c2ccc(O)cc2)sc2cc(O)ccc12 = 10.1%
2) O=C(c1ccc(OCCCCCCCCN2CCCC2)cc1)c1c(-c2ccc(O)cc2)sc2cc(O)ccc12 = 18.3* %
3) O=C(c1ccc(OCCCCN2CCCC2)cc1)c1c(-c2ccc(O)cc2)sc2cc(O)ccc12 = 21.4* %
4) O=C(c1ccc(OCCCCCCN2CCCC2)cc1)c1c(-c2ccc(O)cc2)sc2cc(O)ccc12 = −2.6%
5) O=C(c1ccc(OCCCCCCCN2CCCC2)cc1)c1c(-c2ccc(O)cc2)sc2cc(O)ccc12 = 9.3%
6) O=C(c1ccc(OCCCN2CCCC2)cc1)c1c(-c2ccc(O)cc2)sc2cc(O)ccc12 = 52.6* %
